Target: CCR(9) (Homo sapiens, UniProt P51686)
Construct: CCR(9)-expressing cells such as T cell line MOLT-4 cells
Sequence (P51686 1-369): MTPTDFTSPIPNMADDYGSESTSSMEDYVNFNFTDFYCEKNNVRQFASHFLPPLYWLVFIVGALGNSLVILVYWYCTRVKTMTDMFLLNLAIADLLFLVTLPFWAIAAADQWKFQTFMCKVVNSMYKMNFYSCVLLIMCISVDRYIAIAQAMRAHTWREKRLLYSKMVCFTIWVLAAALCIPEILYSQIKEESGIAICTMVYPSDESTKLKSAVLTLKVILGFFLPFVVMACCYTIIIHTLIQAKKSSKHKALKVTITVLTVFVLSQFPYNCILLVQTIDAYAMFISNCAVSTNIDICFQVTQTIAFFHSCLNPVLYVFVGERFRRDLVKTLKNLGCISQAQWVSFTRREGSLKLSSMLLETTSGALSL
Test: serum chemotaxis (serum migration) assay, MOLT-4 cells in human serum, TECK
Conditions: read-out: A2
What EC50 was measured for each of the following?

Request: Which EC50 is reported for this compound? Cc1cc(NS(=O)(=O)c2ccc(C(C)(C)C)cc2)n(-c2ncc(Cl)c3ccccc23)n1
Result: > 2500 nM

Request: Which EC50 is reported for this compound? Cc1cc(-n2nc(C)cc2NS(=O)(=O)c2ccc(C(C)(C)C)cc2)c2cccnc2c1
Result: 501 to 2500 nM

Request: Which EC50 is reported for this compound? Cc1cc(NS(=O)(=O)c2ccc(C(C)(C)C)cc2)n(-c2ccnc3ccccc23)n1
Result: 501 to 2500 nM

Request: Which EC50 is reported for this compound? CC(C)(C)c1ccc(S(=O)(=O)Nc2cc(C(F)(F)F)nn2-c2cccc3ncccc23)cc1
Result: 501 to 2500 nM

Request: Which EC50 is reported for this compound? Cc1cc(NS(=O)(=O)c2ccc(C(C)(C)C)cc2)n(-c2cc(N)nc3ccccc23)n1
Result: 501 to 2500 nM

---

Target: CCR(9) (Homo sapiens, UniProt P51686)
Construct: CCR(9)-expressing cells such as T cell line MOLT-4 cells
Sequence (P51686 1-369): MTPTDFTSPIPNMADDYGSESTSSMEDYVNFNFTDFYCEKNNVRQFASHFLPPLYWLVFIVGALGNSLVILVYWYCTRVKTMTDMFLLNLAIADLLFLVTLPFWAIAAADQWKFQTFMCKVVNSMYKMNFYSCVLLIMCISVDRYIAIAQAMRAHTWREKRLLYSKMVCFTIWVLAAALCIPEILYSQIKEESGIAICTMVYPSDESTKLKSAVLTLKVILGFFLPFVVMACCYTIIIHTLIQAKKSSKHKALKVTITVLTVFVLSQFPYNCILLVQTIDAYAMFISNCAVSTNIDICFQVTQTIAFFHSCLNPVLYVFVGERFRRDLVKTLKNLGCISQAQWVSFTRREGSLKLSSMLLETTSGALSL
Test: serum chemotaxis (serum migration) assay, MOLT-4 cells in human serum, TECK
Details: read-out: A2
Protocol: In vitro cell chemotaxis assays can be performed (but are not limited to this format) using the 96-well microchamber (called ChemoTX™). The ChemoTX™ system is well known to those skilled in the art as a type of chemotactic/cell migration instrument. […] At the end of the incubation, the number of cells that migrated across the membrane into the lower chamber is then quantified. […]
What EC50 was measured for each of the following?

Request: Which EC50 is reported for this compound? Cc1cc(NS(=O)(=O)c2ccc(C(C)(C)C)cc2)n(-c2ccc(Br)c3ncccc23)n1
Result: 501 to 2500 nM

Request: Which EC50 is reported for this compound? Cc1cc(NS(=O)(=O)c2ccc(C(C)(C)C)c(F)c2)n(-c2cccc3ncccc23)n1
Result: < 500 nM

Request: Which EC50 is reported for this compound? CC(C)(C)c1ccc(S(=O)(=O)Nc2cc(C(F)F)nn2-c2cccc3ncccc23)cc1
Result: < 500 nM

Request: Which EC50 is reported for this compound? Cc1cc(NS(=O)(=O)c2ccc(C(C)(C)C)cc2)n(-c2ccc(C#N)c3ncccc23)n1
Result: 501 to 2500 nM

Request: Which EC50 is reported for this compound? CC(C)Oc1ccc(S(=O)(=O)Nc2cc(C(F)F)nn2-c2cccc3ncccc23)cc1
Result: < 500 nM

Request: Which EC50 is reported for this compound? Cc1cc(NS(=O)(=O)c2ccc(C(C)(C)C)cc2)n(-c2cccc3nc(N)ccc23)n1
Result: < 500 nM

Request: Which EC50 is reported for this compound? Cc1cc(-n2nc(C)cc2NS(=O)(=O)c2ccc(C(C)(C)C)cc2)c2ccccc2n1
Result: 501 to 2500 nM

Request: Which EC50 is reported for this compound? Cc1cc(NS(=O)(=O)c2ccc(C(C)(C)C)c(F)c2)n(-c2ccc(N)c3ncccc23)n1
Result: 501 to 2500 nM

Request: Which EC50 is reported for this compound? Cc1cc(NS(=O)(=O)c2ccc(C(C)(C)C)cc2)n(-c2cccc3c2ccc[n+]3[O-])n1
Result: 501 to 2500 nM

Request: Which EC50 is reported for this compound? Cc1cc(NS(=O)(=O)c2ccc(C(C)(C)C)c(F)c2)n(-c2ccc(C#N)c3ncccc23)n1
Result: < 500 nM

Request: Which EC50 is reported for this compound? Cc1cc(NS(=O)(=O)c2ccc(OC(F)(F)F)cc2)n(-c2cccc3ncccc23)n1
Result: 501 to 2500 nM

Request: Which EC50 is reported for this compound? Cc1cc(NS(=O)(=O)c2ccc(C(C)(C)C)cc2)n(-c2ccc(F)c3ncccc23)n1
Result: 501 to 2500 nM

Request: Which EC50 is reported for this compound? Cc1cc(NS(=O)(=O)c2ccc(C(C)(C)C)cc2)n(-c2cncc3ccccc23)n1
Result: 501 to 2500 nM

Request: Which EC50 is reported for this compound? Cc1cc(NS(=O)(=O)c2ccc(C(C)(C)C)cc2)n(-c2ccc(C)c3ncccc23)n1
Result: 501 to 2500 nM

Request: Which EC50 is reported for this compound? CC(C)Oc1ccc(S(=O)(=O)Nc2cc(CF)nn2-c2cccc3ncccc23)cc1
Result: 501 to 2500 nM

Request: Which EC50 is reported for this compound? Cc1cc(NS(=O)(=O)c2ccc(C(C)(C)C)cc2)n(-c2cccc3ncccc23)n1
Result: < 500 nM

Request: Which EC50 is reported for this compound? CC(C)(C)c1ccc(S(=O)(=O)Nc2cc(CF)nn2-c2cccc3ncccc23)cc1
Result: < 500 nM

Request: Which EC50 is reported for this compound? CC(C)Oc1ccc(S(=O)(=O)Nc2cc(C(F)(F)F)nn2-c2cccc3ncccc23)cc1
Result: > 2500 nM

Request: Which EC50 is reported for this compound? Cc1cc(NS(=O)(=O)c2ccc(C(C)(C)C)c(F)c2)n(-c2ccc(Br)c3ncccc23)n1
Result: < 500 nM

---

biological target: CCR(9) (Homo sapiens); construct: CCR(9)-expressing cells such as T cell line MOLT-4 cells; test: calcium mobilization assay (FLIPR, MOLT-4 cells, hTECK); details: read-out: CCR(9) Ca^2+
pIC50: −log10 of the molar value.
METRIC: pIC50

Request: Which pIC50 is reported for this molecule? Cc1cc(NS(=O)(=O)c2ccc(C(C)(C)C)cc2)n(-c2ccc3ccccc3c2)n1
Result: > 7.00

Request: Which pIC50 is reported for this molecule? Cc1cc(NS(=O)(=O)c2ccc(C(C)(C)C)cc2)n(-c2ccc3ccccc3n2)n1
Result: 6.00 to 7.00

Request: Which pIC50 is reported for this molecule? CC(C)(C)c1ccc(S(=O)(=O)Nc2cc(CC#N)nn2-c2cccc3ncccc23)cc1
Result: > 7.00

Request: Which pIC50 is reported for this molecule? Cc1cnc2c(Cl)ccc(-n3nc(C)cc3NS(=O)(=O)c3ccc(C(C)(C)C)cc3)c2c1
Result: > 7.00

Request: Which pIC50 is reported for this molecule? Cc1cc(NS(=O)(=O)c2ccc(C(C)(C)C)cc2)n(-c2ccc3ncccc3c2)n1
Result: > 7.00

Request: Which pIC50 is reported for this molecule? CC(C)Oc1ccc(S(=O)(=O)Nc2cc(C(C)(F)F)nn2-c2cccc3ncccc23)cc1
Result: > 7.00

Request: Which pIC50 is reported for this molecule? CC(C)(C)c1ccc(S(=O)(=O)Nc2cc(C(C)(F)F)nn2-c2cccc3ncccc23)cc1
Result: > 7.00

Request: Which pIC50 is reported for this molecule? Cc1cc(NS(=O)(=O)c2ccc(C(C)(C)C)cc2)n(-c2cccc3cnncc23)n1
Result: < 6.00

Request: Which pIC50 is reported for this molecule? Cc1cc(NS(=O)(=O)c2ccc(C(C)(C)C)cc2)n(-c2ncc(C)c3ccccc23)n1
Result: > 7.00

Request: Which pIC50 is reported for this molecule? COc1cc(C(C)(C)C)ccc1S(=O)(=O)Nc1cc(C)nn1-c1cccc2ncccc12
Result: > 7.00

Request: Which pIC50 is reported for this molecule? Cc1cc(NS(=O)(=O)c2ccc(C(C)(C)C)cc2)n(-c2ccc(Cl)c3nccc(C)c23)n1
Result: > 7.00

Request: Which pIC50 is reported for this molecule? COc1ccc(S(=O)(=O)Nc2cc(C)nn2-c2cccc3ncccc23)cc1
Result: 6.00 to 7.00

Request: Which pIC50 is reported for this molecule? Cc1cc(NS(=O)(=O)c2ccc(C(C)(C)C)cc2C)n(-c2cccc3ncccc23)n1
Result: 6.00 to 7.00

Request: Which pIC50 is reported for this molecule? Cc1cc(NS(=O)(=O)c2ccc(C(C)(C)C)cc2)n(-c2c(C)ccc3ncccc23)n1
Result: > 7.00

Request: Which pIC50 is reported for this molecule? Cc1cc(NS(=O)(=O)c2ccc(C(C)(C)C)cc2)n(-c2ccnc3ccc(F)cc23)n1
Result: > 7.00

Request: Which pIC50 is reported for this molecule? CC(C)(C)c1ccc(S(=O)(=O)Nc2c3c(nn2-c2cccc4cnccc24)CCC3)cc1
Result: > 7.00

Request: Which pIC50 is reported for this molecule? Cc1cc(NS(=O)(=O)c2ccc3c(c2)CC(C)(C)O3)n(-c2cccc3ncccc23)n1
Result: > 7.00

Request: Which pIC50 is reported for this molecule? Cc1cc(NS(=O)(=O)c2ccc(C(C)(C)C)cc2)n(-c2ncnc3ccccc23)n1
Result: > 7.00

Request: Which pIC50 is reported for this molecule? Cc1cc(NS(=O)(=O)c2ccc(C(C)(C)O)cc2)n(-c2cccc3ncccc23)n1
Result: > 7.00

Each recorded value in this set is attributed to patent US20180009797A1.
